biological target: Prostaglandin E synthase (Homo sapiens, UniProt O14684); experiment: Inhibition of human microsomal PGES1 using PGH2 as substrate incubated after 75 secs by MDA-TBA assay
METRIC NAME: pIC50
Would you please state pIC50, meaning minus log10 of the concentration in mol/L, as a bare number?

Ask | I'd like to know its pIC50. The molecule in question is CC1=NN(C(N)=S)C(=O)/C1=N/Nc1cccc(Br)c1
Reply | 5.74

###

biological target: Prostaglandin G/H synthase 2 (Homo sapiens); experiment: Inhibition of COX2 in IL1beta-induced human A549 cells using arachidonic acid as substrate assessed as 6-keto PGF1a formation preincubated for 10 mins followed by substrate addition measured after 30 mins by enzyme immunoassay; format: cell-based
Sequence (P35354 whole entry): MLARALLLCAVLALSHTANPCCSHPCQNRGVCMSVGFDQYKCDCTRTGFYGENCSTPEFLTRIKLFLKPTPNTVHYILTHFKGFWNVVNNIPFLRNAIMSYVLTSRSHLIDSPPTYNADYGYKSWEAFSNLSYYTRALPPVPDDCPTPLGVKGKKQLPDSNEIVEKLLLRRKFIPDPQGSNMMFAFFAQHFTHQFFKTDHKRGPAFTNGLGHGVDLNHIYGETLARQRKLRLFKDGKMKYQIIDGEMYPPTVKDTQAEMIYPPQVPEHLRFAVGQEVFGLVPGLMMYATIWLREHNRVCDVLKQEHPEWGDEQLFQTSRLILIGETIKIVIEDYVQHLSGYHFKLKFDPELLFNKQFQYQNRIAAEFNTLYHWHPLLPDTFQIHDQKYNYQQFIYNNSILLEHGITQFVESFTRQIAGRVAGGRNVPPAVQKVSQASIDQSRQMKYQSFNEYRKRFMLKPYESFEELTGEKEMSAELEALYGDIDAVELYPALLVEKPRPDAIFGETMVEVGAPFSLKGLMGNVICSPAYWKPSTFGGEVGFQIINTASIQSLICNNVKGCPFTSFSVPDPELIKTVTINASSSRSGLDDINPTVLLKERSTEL
pIC50: −log10 of the molar value.
METRIC NAME: pIC50

Ask | I'd like to know its pIC50. The compound in question is CCc1oc(=O)c(Cc2c(O)c(CC=C(C)C)c(O)c(C(C)=O)c2O)c(O)c1C
Reply | ≤ 4.52

###

molecular target: Prostaglandin E synthase (Homo sapiens); test: Inhibition of human microsomal PGES1 using PGH2 as substrate incubated for 90 secs by MDA-TBA assay
METRIC NAME: IC50 (nM)
Number only, in nM; omit the unit.

Ask | I'd like to know its IC50. The molecule in question is Cc1cc2nc(N3CCC(C(=O)NC4CCCC4)CC3)n(C(C)C)c2cc1C
Reply | 90

###

Target: Prostaglandin E synthase (Homo sapiens, UniProt O14684)
Sequence (O14684 whole entry): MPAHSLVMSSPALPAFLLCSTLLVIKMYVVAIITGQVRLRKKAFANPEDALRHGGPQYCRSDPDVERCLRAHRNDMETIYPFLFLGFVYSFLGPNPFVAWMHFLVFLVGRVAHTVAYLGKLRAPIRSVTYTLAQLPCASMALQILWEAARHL
Test: Inhibition of microsomal PGES1 in ILbeta/TNFalpha-stimulated human A549 cells using PGH2 as substrate preincubated for 15 mins followed by substrate addition measured after 1 min by LC-MS/MS analysis
Type: cell-based
METRIC NAME: IC50 (µM)
Number only, in µM; omit the unit.

Ask | I'd like to know its IC50. The compound in question is COc1cc(C(=O)NS(=O)(=O)c2ccccc2C)ccc1Cc1cn(C)c2ccc(NC(=O)OC3CCCC3)cc12
Reply | 18.1

###

Entries and their measured pIC50 follow.
Target: Prostaglandin E synthase (Homo sapiens)
Sequence (O14684 whole entry): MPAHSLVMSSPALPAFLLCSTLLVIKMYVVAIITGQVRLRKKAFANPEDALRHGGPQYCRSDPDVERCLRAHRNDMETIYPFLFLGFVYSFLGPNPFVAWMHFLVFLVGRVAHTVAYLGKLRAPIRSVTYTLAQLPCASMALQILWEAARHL
Assay: Inhibition of microsomal PGES1 in ILbeta-stimulated human A549 cells using PGH2 as substrate preincubated for 15 mins followed by substrate addition measured after 1 min by RP-HPLC analysis
Assay type: cell-based
Would you please state pIC50, meaning minus log10 of the concentration in mol/L, as a bare number?

INSERT INTO assay_data (molecule, reported_result) VALUES
  ('CC(=O)c1c(O)c(CC=C(C)C)c(O)c(C(c2ccccc2)c2c(O)cc(C)oc2=O)c1O (stereo not drawn)', 6.00),
  ('CCc1oc(=O)c(C(c2ccccc2)c2c(O)c(CC=C(C)C)c(O)c(C(C)=O)c2O)c(O)c1C (stereo not drawn)', 6.10),
  ('CC(C)c1cc2c(c(O)c1O)[C@@]13CCCC(C)(C)[C@@H]1C[C@@H]2OC3=O [CARNOSOL]', 5.30),
  ('CCCCCc1cc(OC(=O)c2c(O)cc(O)cc2CCCCC)cc(O)c1C(=O)O', 6.40),
  ('CC(C)c1cc2c(c(O)c1O)[C@@]1(C(=O)O)CCCC(C)(C)[C@@H]1CC2 [CARNOSIC ACID]', 5.30);

Ask | I'd like to know its pIC50. The molecule in question is COc1cc(/C=C/C(=O)CC(=O)/C=C/c2ccc(O)c(OC)c2)ccc1O [CURCUMIN]
Reply | 6.70

Ask | I'd like to know its pIC50. The molecule in question is CCCCCC(=O)Cc1cc(O)cc(O)c1C(=O)Oc1cc(O)c(C(=O)O)c(CCCCC)c1
Reply | 5.94

Ask | I'd like to know its pIC50. The molecule in question is CCCCCC(=O)Cc1cc(O)cc2c1C(=O)Oc1cc(O)c(C(=O)O)c(CCCCC)c1O2 [PHYSODIC ACID]
Reply | 6.37
